Attribution: ChEMBL document CHEMBL1122842

- measurement.target: Beta-1 adrenergic receptor (Rattus norvegicus) (UniProt P18090)
- Sequence (P18090 whole entry, looked up): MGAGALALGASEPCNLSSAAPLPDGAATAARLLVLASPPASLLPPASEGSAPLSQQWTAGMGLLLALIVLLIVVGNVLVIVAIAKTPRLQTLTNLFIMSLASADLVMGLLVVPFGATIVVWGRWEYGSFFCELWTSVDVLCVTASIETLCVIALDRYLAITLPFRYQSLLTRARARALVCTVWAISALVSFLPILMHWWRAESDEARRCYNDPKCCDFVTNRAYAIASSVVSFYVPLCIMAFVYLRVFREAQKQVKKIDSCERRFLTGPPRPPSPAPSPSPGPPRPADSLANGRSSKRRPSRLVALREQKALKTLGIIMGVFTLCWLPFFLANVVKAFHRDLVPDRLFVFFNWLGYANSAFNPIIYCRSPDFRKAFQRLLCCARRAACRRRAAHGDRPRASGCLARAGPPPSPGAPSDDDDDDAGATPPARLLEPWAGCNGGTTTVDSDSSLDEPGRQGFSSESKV
- condition.label: Heart
- Description: Beta-1 adrenergic receptor agonist activity as increased heart rate by 30 beats/min in rats
reported.metric: ED30 (mg/kg)

CCc1cccc2cc([C@@H](O)CNC(C)(C)C)oc12 ... 0.053
CC(O)c1cccc2cc([C@@H](O)CNC(C)(C)C)oc12 (stereo in doubt; form 2) ... 0.0007
CC(=O)c1cccc2cc([C@@H](O)CNC(C)(C)C)oc12 ... 0.0006
CC(=O)c1cccc2cc([C@H](O)CNC(C)(C)C)oc12 ... 0.032

[I] CC(O)c1cccc2cc([C@H](O)CNC(C)(C)C)oc12 (stereo in doubt; form 2)
[II] CC(O)c1cccc2cc([C@@H](O)CNC(C)(C)C)oc12 (stereo in doubt; form 1)
Q: Please compare: I and II . Report which one has the smaller ED30 value. The response must carry the label of the picked entry.
A: II
(II: 0.019 mg/kg, I: 0.305 mg/kg)
